Assay: chemical genetic growth profiling, strain panel (AID 1159580);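 also: tested at 20 µM; growth read once vehicle control cultures reached saturation at 30 °C; 1 = growth at the plate median or of vehicle wells; lower values mean less growth of the strain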
Settings: S. cerevisiae deletion strains, growth OD, locus YGR229C, strain SMI1, active compounds read low
Screen size: about 5,500 compounds; about 2,000 (36%) were called active. Another 18% or so got no clear call; they are omitted. Some of the results follow.
endpoint: normalized growth

A selection of reference data follows.
molecule | endpoint | reportedMeasurement
COc1ccc(OC)c(S(=O)(=O)Nc2ccc(C#N)cc2)c1 | normalized growth | 1 (inactive)
CCN(CC)CCCC(C)Nc1c2ccc(Cl)cc2nc2ccc(OC)cc12 (stereo not drawn) | normalized growth | 0.754 (active)
c1ccc(N=Nc2ccc(Nc3ccccc3)cc2)cc1 | normalized growth | 0.984 (inactive)
CC(C(=O)O)c1cccc(Oc2ccccc2)c1 (stereo not drawn) | normalized growth | 0.974 (inactive)
CC[C@H]1OC(=O)[C@H](C)[C@@H](O[C@H]2C[C@@](C)(OC)[C@@H](O)[C@H](C)O2)[C@H](C)[C@@H](O[C@@H]2O[C@H](C)C[C@H](N(C)C)[C@H]2O)[C@](C)(O)C[C@@H](C)CN(C)[C@H](C)[C@@H](O)[C@]1(C)O | normalized growth | 0.988 (inactive)

The molecule identified as `COc1ccc2c3c1O[C@H]1C[C@@H](O)C=C[C@@]31CCN(C)C2` registered its normalized growth at 0.981 (inactive)

The molecule identified as C=C1C2CC[C@H]3[C@]4(C)C[C@H](OC5OC(CO)C(OS(=O)(=O)O)C(OS(=O)(=O)O)C5OC(=O)CC(C)C)C[C@@H](C(=O)O)[C@H]4CC[C@]3(C2)[C@H]1O (stereo partly drawn) registered its normalized growth at 1.02 (inactive)

The molecule identified as CCN(CCO)CCCC(C)Nc1ccnc2cc(Cl)ccc12 (stereo not drawn) registered its normalized growth at 1.03 (inactive)

The molecule identified as CCC(C)C(OC(C)=O)C(=O)OC1C(O)C2C3(C)C=CC(=O)C(C)(C)C3CC(OC(=O)C(O)C(C)C)C2(C)C23OC2CC(c2ccoc2)C13C (stereo not drawn) registered its normalized growth at 1.02 (inactive)

----------
Test: chemical genetic growth profiling, strain panel (AID 1159580);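 also: tested at 20 µM; growth read once vehicle control cultures reached saturation at 30 °C; 1 = growth at the plate median or of vehicle wells; lower values mean less growth of the strain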
Details: S. cerevisiae deletion strains, growth OD, locus YLR058C, strain SHM2, active compounds read low
Among all 5,500 compounds or so, about 2,000 (36%) were called active. Roughly 18% stayed inconclusive and do not appear here. This is one part of the list.
Here the recorded normalized growth is given for each entry.
Respond numerically, and do not add a unit to the figure.

A selection of reference data follows.
molecule | normalized growth
CC[C@H](/C=C/C(C)C1CCC2C3CCC4=CC(=O)CC[C@]4(C)C3CC[C@]12C)C(C)C (stereo partly drawn) | 1.01
COc1cc2c(cc1OC)[C@@H]1C(=O)c3ccc(O)c(CC=C(C)C)c3O[C@@H]1CO2 | 0.98
COc1cc2c(cc1OC)[C@@H]1C(=O)c3ccc(OC)c(CC=C(C)C)c3O[C@@H]1CO2 | 1
CCOC(=O)CCC(=O)O[C@H]1[C@H](O[C@@H]2[C@@H](C)[C@H](O[C@H]3C[C@@](C)(OC)[C@@H](O)[C@H](C)O3)[C@@H](C)C(=O)O[C@H](CC)[C@@](C)(O)[C@H](O)[C@@H](C)C(=O)[C@H](C)C[C@@]2(C)O)O[C@H](C)C[C@@H]1N(C)C | 0.975
CCC(=O)O[C@H]1[C@H](O[C@@H]2[C@@H](C)[C@H](O[C@H]3C[C@@](C)(OC)[C@@H](O)[C@H](C)O3)[C@@H](C)C(=O)O[C@H](CC)[C@@](C)(O)[C@H](O)[C@@H](C)C(=O)[C@H](C)C[C@@]2(C)O)O[C@H](C)C[C@@H]1N(C)C | 0.968
CCOC(=O)C1(O)Oc2cc(OC)cc(OC)c2C(=O)C1c1ccccc1 (stereo not drawn) | 1

The molecule identified as COc1cc2c(cc1OC)C1C(=O)c3ccc4c(c3OC1CO2)CCC(C)(C)O4 (stereo not drawn) registered its normalized growth at 0.999

The molecule identified as `CCOC(=O)c1c(C)cc(O)c(C=O)c1O` registered its normalized growth at 0.202

The molecule identified as CC1CC2C3CC(F)C4=CC(=O)C=CC4(C)C3(F)C(O)CC2(C)C1(O)C(=O)CO (stereo not drawn) registered its normalized growth at 1.02

The molecule identified as CCC(=O)O[C@H]1CCC2C3CCC4=CC(=O)CC[C@]4(C)C3CC[C@@]21C (stereo partly drawn) registered its normalized growth at 0.956

The molecule identified as OCCN1C[C@@H](O)[C@@H](O)C(O)C1CO (stereo partly drawn) registered its normalized growth at 1.02

The molecule identified as CCOC(=O)C(=O)C1(C(=O)OCC)Oc2cc(OC)cc(OC)c2C(=O)C1c1ccccc1 (stereo not drawn) registered its normalized growth at 0.959

The molecule identified as CC(=O)C1CCC2C3CC(=O)C4=CC(=O)CCC4(C)C3CCC12C (stereo not drawn) registered its normalized growth at 0.971

The molecule identified as `S=c1nc[nH]c2nc[nH]c12` registered its normalized growth at 0.982

The molecule identified as C[C@]12CCC(=O)C=C1CCC1C2CC[C@@]2(C)C1CC[C@@H]2O (stereo partly drawn) registered its normalized growth at 1.02

The molecule identified as `CNCCc1ccccn1` registered its normalized growth at 1.01

The molecule identified as `Cc1cc(O)c(C=O)c(O)c1C(=O)O` registered its normalized growth at 0.965

The molecule identified as CCN(CC)CCCC(C)Nc1c2ccc(Cl)cc2nc2ccc(OC)cc12 (stereo not drawn) registered its normalized growth at 0.524
